Reference source for all entries: the antibiotic and cytotoxicity screens of Wong et al. (2023)

Tested on: HSkMC
Assay: cytotoxicity call (relative viability < 0.9)
Conditions: 10 µM
Out of some 39,000 compounds screened, about 1,500 (3.8%) were called active. For the sample, actives were picked, then their nearest neighbours and some compounds at random.
Please answer using one outcome listed in active, inactive

Q) Given "Cc1noc(C)c1NC(=O)Nc1ccc2c(c1)CC(=O)N([C@H](C)CO)C[C@@H](C)[C@H](CN(C)S(=O)(=O)c1cn(C)cn1)O2" , state the outcome it received in this test.
A) inactive

Q) Given "O=C(Nc1ccc(F)cc1)N[C@@H]1C[C@@H]2O[C@H](CO)CC[C@@H]2O[C@@H]1CCc1ccc(-c2ccccc2)cc1" , state the outcome it received in this test.
A) inactive

Q) Given "C[C@@H]1CN([C@H](C)CO)C(=O)c2cc(C#Cc3ccccn3)cnc2O[C@@H]1CN(C)C(=O)CCN1CCCCC1" , state the outcome it received in this test.
A) inactive

Q) Given "OC[C@H]1CC[C@@H]2O[C@H](CCc3ccc(C#Cc4ccccc4)cc3)[C@@H](n3cc(-c4ccccc4)nn3)C[C@@H]2O1" , state the outcome it received in this test.
A) inactive

Q) Given "C[C@H](CO)N1C[C@H](C)[C@@H](CN(C)S(=O)(=O)c2ccc(Cl)cc2)OCCCC[C@H](C)Oc2ccc(NC(=O)c3ccccc3)cc2C1=O" , state the outcome it received in this test.
A) inactive

Q) Given "OC[C@H]1CC[C@@H]2O[C@H](CCc3ccc(C#CCc4ccccc4)cc3)[C@H](n3cc(-c4ccccc4)nn3)C[C@@H]2O1" , state the outcome it received in this test.
A) active

Q) Given "Cc1noc(C)c1NC(=O)Nc1ccc2c(c1)C(=O)N([C@H](C)CO)C[C@H](C)[C@H](CN(C)C(=O)Nc1ccccc1)OCCCC[C@@H](C)O2" , state the outcome it received in this test.
A) inactive

Q) Given "C[C@H]1CN([C@@H](C)CO)C(=O)c2cc(NS(=O)(=O)c3cn(C)cn3)ccc2O[C@@H]1CN(C)C(=O)Nc1ccccc1" , state the outcome it received in this test.
A) inactive

Q) Given "N[C@@H]1CC[C@@H](CCn2cc(-c3cccc(F)c3)nn2)O[C@H]1CO" , state the outcome it received in this test.
A) inactive

Q) Given "C[C@@H]1CN([C@H](C)CO)C(=O)Cc2cc(NC(=O)c3ccncc3)ccc2O[C@@H]1CN(C)S(=O)(=O)c1ccc(F)cc1" , state the outcome it received in this test.
A) inactive

Q) Given "C[C@@H]1CN([C@H](C)CO)C(=O)c2cc(NC(=O)c3ccncc3)ccc2O[C@H]1CN(C)Cc1ccc(Oc2ccccc2)cc1" , state the outcome it received in this test.
A) inactive

Q) Given "OC[C@@H]1CC[C@@H]2O[C@H](CCc3ccc(C#CCc4ccccc4)cc3)[C@H](n3cc(-c4ccccc4)nn3)C[C@@H]2O1" , state the outcome it received in this test.
A) inactive

Q) Given "C[C@@H]1CN([C@H](C)CO)C(=O)Cc2cc(NS(=O)(=O)c3cn(C)cn3)ccc2O[C@H]1CN(C)C(=O)Nc1ccc(F)cc1" , state the outcome it received in this test.
A) inactive

Q) Given "Cc1noc(C)c1S(=O)(=O)N(C)C[C@H]1Oc2ccc(NC(=O)Cc3ccccc3)cc2CC(=O)N([C@@H](C)CO)C[C@H]1C" , state the outcome it received in this test.
A) inactive

---

Test system: HSkMC
Assay: cytotoxicity call (relative viability < 0.9)
Conditions: 10 µM
In all, about 39,000 compounds went through this assay and about 1,500 (3.8%) were called active. For the sample, actives were picked, then their nearest neighbours and some compounds at random.
measure name: cytotoxicity call

Consider the worked cases shown below.
[[record]]
smiles_text = "C/C=C(/C)C(=O)O[C@@H]1[C@H](OC(C)=O)[C@]2(CO)[C@H](O)C[C@]3(C)C(=CC[C@H]4[C@@]5(C)CC[C@H](O[C@@H]6O[C@H](C(=O)O)[C@@H](O[C@@H]7O[C@H](CO)[C@@H](O)[C@H](O)[C@H]7O)[C@H](O)[C@H]6O[C@@H]6O[C@H](CO)[C@@H](O)[C@H](O)[C@H]6O)[C@](C)(CO)[C@@H]5CC[C@]43C)[C@@H]2CC1(C)C"
measure_name = "cytotoxicity call"
measured = "inactive"

[[record]]
smiles_text = "C[C@H]1O[C@@H](O[C@H]2CC[C@@]3(C)[C@@H](CC[C@@]4(C)[C@@H]3CC=C3[C@H]5C[C@](C)(C(=O)O)CC[C@]5(C(=O)O[C@H]5O[C@@H](CO)[C@@H](O)[C@@H](O)[C@@H]5O)CC[C@@]34C)[C@@]2(C)CO)[C@@H](O)[C@@H](O[C@H]2O[C@@H](CO)[C@@H](O)[C@@H](O)[C@@H]2O)[C@@H]1O"
measure_name = "cytotoxicity call"
measured = "inactive"

[[record]]
smiles_text = "CC(C)NC(=O)N(C)C[C@@H]1Oc2ccc(NC(=O)Nc3ccc4c(c3)OCO4)cc2C(=O)N([C@@H](C)CO)C[C@H]1C"
measure_name = "cytotoxicity call"
measured = "inactive"

[[record]]
smiles_text = "CC1(C)CC[C@]2(C(=O)O[C@H]3O[C@@H](CO)[C@@H](O)[C@@H](O)[C@@H]3O)CC[C@]3(C)C(=CC[C@H]4[C@@]5(C)C[C@@H](O)[C@H](O[C@H]6O[C@H](C(=O)O)[C@@H](O)[C@@H](O)[C@@H]6O)C(C)(C)[C@@H]5CC[C@]43C)[C@@H]2C1"
measure_name = "cytotoxicity call"
measured = "inactive"


// next item, cytotoxicity call requested
Q) For the compound "C[C@H]1O[C@@H](OC(=O)[C@]23CCC(C)(C)C[C@H]2C2=CC[C@H]4[C@@]5(C)CC[C@H](O[C@@H]6O[C@H](C(=O)O)[C@@H](O)[C@H](O[C@@H]7OC[C@@H](O)[C@H](O)[C@H]7O)[C@H]6O[C@@H]6O[C@H](CO)[C@H](O)[C@H](O)[C@H]6O)[C@@](C)(C=O)[C@@H]5CC[C@@]4(C)[C@]2(C)C[C@H]3O)[C@H](O[C@H]2O[C@@H](CO)[C@@H](O)[C@@H](O)[C@@H]2O)[C@@H](O)[C@H]1O[C@@H]1O[C@H](C)[C@@H](O[C@H]2OC[C@@H](O)[C@@H](O)[C@@H]2O)[C@H](O)[C@@H]1O" , give its measured cytotoxicity call value.
A) inactive

---

Tested on: HSkMC
Assay: cytotoxicity call (relative viability < 0.9)
Conditions: 10 µM
About 1,500 (3.8%) of roughly 39,000 compounds were called active. What follows is part of a selection rich in actives, with near analogues and random picks from the rest.
Please answer using one outcome listed in active, inactive

Q) Given "COc1ccc(CN(C)C[C@H]2OCCCC[C@@H](C)Oc3ccc(NC(=O)Nc4ccc(C(F)(F)F)cc4)cc3C(=O)N([C@@H](C)CO)C[C@H]2C)cc1" , state the outcome it received in this test.
A) active

Q) Given "C[C@H]1CN([C@@H](C)CO)C(=O)c2c(c3ccccc3n2C)-c2ccccc2CO[C@@H]1CN(C)Cc1ccc(-c2ccccc2)cc1" , state the outcome it received in this test.
A) inactive

Q) Given "C[C@H](CO)N1C[C@H](C)[C@H](CN(C)C(=O)Nc2ccc(-c3ccccc3)cc2)OCc2ccccc2-c2c(n(C)c3ccccc23)C1=O" , state the outcome it received in this test.
A) active

Q) Given "C[C@H](CO)N1C[C@H](C)[C@H](CN(C)Cc2ccc(-c3ccccc3)cc2)OCc2ccccc2-c2c(n(C)c3ccccc23)C1=O" , state the outcome it received in this test.
A) active

---

System: HSkMC (human skeletal muscle cells)
Assay: cytotoxicity call (relative viability < 0.9)
Details: 10 µM
Out of some 39,000 compounds screened, about 1,500 (3.8%) were called active. What follows is part of a selection rich in actives, with near analogues and random picks from the rest.
Please answer using one outcome listed in active, inactive

Q) Given "CCN(CC)S(=O)(=O)c1nnc[nH]1" , state the outcome it received in this test.
A) inactive

Q) Given "C=CCOC(=O)[C@@H]1[C@H]2C(=O)O[C@H](c3ccccc3)[C@H](c3ccccc3)N2[C@H](c2ccc(OCCOC(=O)[C@H]3C[C@H]4C(=O)N[C@@H](CCCCN(C)C)C(=O)N4[C@H]3c3cccc(OCCO)c3)cc2)[C@@]12C(=O)Nc1ccc(I)cc12" , state the outcome it received in this test.
A) inactive

Q) Given "C[C@@H]1CN([C@H](C)CO)C(=O)c2cccc(NC(=O)NC3CCCCC3)c2O[C@H]1CN(C)C(=O)Nc1ccc(C(F)(F)F)cc1" , state the outcome it received in this test.
A) inactive

Q) Given "Cc1ccc(S(=O)(=O)N(C)C[C@H]2Oc3c(NC(=O)C4CC4)cccc3C(=O)N([C@@H](C)CO)C[C@H]2C)cc1" , state the outcome it received in this test.
A) inactive

Q) Given "COc1ccc(S(=O)(=O)Nc2ccc3c(c2)C(=O)N([C@H](C)CO)C[C@H](C)[C@H](CN(C)Cc2ccc(Cl)c(Cl)c2)OCCCC[C@H](C)O3)cc1" , state the outcome it received in this test.
A) active

Q) Given "COc1ccc(S(=O)(=O)Nc2ccc3c(c2)C(=O)N([C@H](C)CO)C[C@@H](C)[C@H](CN(C)Cc2ccc(Cl)c(Cl)c2)OCCCC[C@H](C)O3)cc1" , state the outcome it received in this test.
A) active

Q) Given "C[C@@H]1CN([C@H](C)CO)C(=O)c2cc(NS(C)(=O)=O)ccc2O[C@@H](C)CCCCO[C@H]1CN(C)S(=O)(=O)c1cccs1" , state the outcome it received in this test.
A) inactive

Q) Given "C[C@@H]1CN([C@H](C)CO)S(=O)(=O)c2ccc(C#Cc3ccccc3)cc2O[C@@H]1CN(C)S(C)(=O)=O" , state the outcome it received in this test.
A) inactive

Q) Given "COc1ccc(S(=O)(=O)Nc2ccc3c(c2)C(=O)N([C@H](C)CO)C[C@H](C)[C@@H](CN(C)Cc2ccc(Cl)c(Cl)c2)OCCCC[C@@H](C)O3)cc1" , state the outcome it received in this test.
A) inactive

Q) Given "C[C@H](CO)N1C[C@H](C)[C@H](CN(C)C(=O)Nc2ccc(C(F)(F)F)cc2)Oc2c(NC(=O)NC3CCCCC3)cccc2C1=O" , state the outcome it received in this test.
A) inactive

Q) Given "C[C@H]1CN([C@@H](C)CO)C(=O)c2cccc(NC(=O)NC3CCCCC3)c2O[C@@H]1CN(C)C(=O)Nc1ccc(C(F)(F)F)cc1" , state the outcome it received in this test.
A) inactive

Q) Given "COc1ccc(NC(=O)Nc2ccc3c(c2)CC(=O)N([C@@H](C)CO)C[C@H](C)[C@H](CN(C)C(=O)Nc2cccc4ccccc24)O3)cc1" , state the outcome it received in this test.
A) inactive

Q) Given "CC(C)NC(=O)Nc1ccc2c(c1)C(=O)N([C@@H](C)CO)C[C@H](C)[C@@H](CN(C)Cc1ccc(Cl)c(Cl)c1)OCCCC[C@@H](C)O2" , state the outcome it received in this test.
A) inactive
